- ASSAY NOTES: Human HepG2 cell viability assay in 384 well format
- Format: toxicity, cell-based
- Design: dose 125 nL, time 70.5 hour; concentration not given beside the values
- SETTINGS: HepG2 cells, read-out: Inhibition
Recorded cytotoxicity at 70.5 h, one value per entry.
METRIC: cytotoxicity at 70.5 h (%)

>>> recorded_number("Cn1ccc(C(=O)Nc2nc(-c3ccc4c(c3)CCO4)cs2)cc1=O")
-6.04
>>> recorded_number("O=C(Cn1ccc2ccccc21)N1CCC(Oc2ncccc2Br)CC1")
-3.13
>>> recorded_number("CCC(C)NC(=O)NCCC(=O)N1CCN(c2ccccn2)CC1 (stereo unspecified)")
-0.377
>>> recorded_number("Cc1noc(C(C)C)c1C(=O)NCc1cc(F)cc(F)c1")
-4.07
>>> recorded_number("CC(C)CS(=O)(=O)N1CCC2(CC1)CCn1c(-c3cnn(C)c3)cnc12")
32.9
>>> recorded_number("COc1ccc(C(O)CN2CC(n3cc(C)cn3)C2)cc1 (stereo unspecified)")
-8.25
>>> recorded_number("Cc1cc(C)c(CNC(=O)NCCNc2ncccn2)c(=O)[nH]1")
-12.7
>>> recorded_number("Cc1cc(C)n(C2CN(CC(=O)N(C)Cc3ccc(C)o3)C2)n1")
-9.43
>>> recorded_number("Cc1nn2cccnc2c1C(=O)NCc1ccccc1OC1CCC1")
-4.01
>>> recorded_number("Cc1nnc(CN(Cc2cccc(Br)c2)C2CC2)o1")
-8.25
>>> recorded_number("COCc1noc(-c2nn(-c3ccc(F)cc3)c3c2CCC3)n1")
-8.74
>>> recorded_number("O=C(c1sccc1Br)N1CCOCC1")
-15.9
>>> recorded_number("CC(C)n1ncc2c1NC(=O)CC21C(=O)Nc2c(Br)cc(Cl)cc21 (stereo unspecified)")
-14.8
>>> recorded_number("CCN1CCCC12CCCN(c1ncccn1)C2 (stereo unspecified)")
-9.5
>>> recorded_number("Cc1ncsc1C(=O)NC1CCN(CCC#N)CC1")
16.5
>>> recorded_number("COc1cccc(NC(=O)CCCc2nc(C(C)C)no2)c1")
5.69
>>> recorded_number("CNC(=O)CN1CCC(OCc2ccc(Cl)c(Cl)c2)CC1")
3.41
>>> recorded_number("CN1CCO[C@@H]2CN(S(=O)(=O)c3ccc(F)cc3)CC[C@@H]2C1")
-1.86
>>> recorded_number("Cn1cncc1-c1nnc([C@H]2CCN(Cc3ccc(F)c(F)c3)C2)o1")
-0.644
>>> recorded_number("Cc1n[nH]c2nc(-c3ccccc3O)cc(C(=O)O)c12")
13.5
>>> recorded_number("CC(=O)N1CCC(n2ccc(-c3cnc(NCC(C)C)nc3)n2)CC1")
-5.12
>>> recorded_number("CC(C)CS(=O)(=O)N1CCC2(CN(c3ccsc3)C(=O)CN2C)C1 (stereo unspecified)")
-111
>>> recorded_number("CCC[C@H]1CN(CCS(C)(=O)=O)C[C@@H]1NC(=O)c1cccnn1")
7.31
>>> recorded_number("CCS(=O)(=O)c1ccccc1N1CCC(NC(=O)NC2CCCC2)CC1")
-14.2
>>> recorded_number("CCCc1ncc(CN(CCOC)Cc2cccs2)cn1")
-1.12
>>> recorded_number("c1ccc2c3c([nH]c2c1)CN(Cc1cc2n(n1)CCNC2)CC3")
21.1
>>> recorded_number("c1cncc(C2COC3(CCN(CC4CCOCC4)CC3)C2)c1 (stereo unspecified)")
1.21
>>> recorded_number("O=C(c1cocn1)N1CCC[C@]2(C[C@@H](OCC3CC3)CO2)C1")
-7.29
>>> recorded_number("CCN1CCNC(=O)C12CCN(S(=O)(=O)c1ccc(OC)cc1)CC2")
-7.91
>>> recorded_number("CCCOC(=O)c1ccc(-c2ccc(/C=C3\\C(=O)NC(=N)N3C)o2)cc1")
18.1
>>> recorded_number("O=C(O)C1CCCN(c2nc3c(-c4ccccc4)csc3c(=O)[nH]2)C1 (stereo unspecified)")
0.25
>>> recorded_number("O=C(NC1CC1)[C@H]1CC[C@@H]2[C@@H](CCN2Cc2ccsc2)O1")
-10.2
>>> recorded_number("Cn1ccc(C(=O)N2CCC[C@]3(C[C@@H](OCc4ccccn4)CO3)C2)n1")
-12.2
>>> recorded_number("Cn1nc(C#N)c2c1CN(C(=O)c1ccnnc1)CCC2")
0.526
>>> recorded_number("Cc1cccn2c(CNC(C)CO)cnc12 (stereo unspecified)")
40.8
>>> recorded_number("O=C1CC(c2ccncc2)C2(CCN(C(=O)c3ccnnc3)CC2)N1 (stereo unspecified)")
-8.48
>>> recorded_number("CC(C)Oc1cccc(Cc2nc3c([nH]2)CCCNC3=O)c1")
-4.78
>>> recorded_number("CC(CNC(=O)c1cccnc1O)Cn1cccn1 (stereo unspecified)")
-7.01
>>> recorded_number("CC(CNC(=O)Nc1ccc(F)cc1Br)N1CCOCC1 (stereo unspecified)")
31.4
>>> recorded_number("CCCS(=O)(=O)N1CCO[C@H]2[C@@H](Oc3cccnc3)CC[C@@H]21")
-1.96
>>> recorded_number("Cc1ccc(C(=O)N2CCC3(CCC(=O)N(CCCO)C3)CC2)c(O)c1")
-8.79
>>> recorded_number("Cc1ccc(NC2CCN(C(=O)c3cccc4ncccc34)CC2)nn1")
1.63
>>> recorded_number("CC(=O)N1C[C@H]2CCCN(S(=O)(=O)c3ccc(Cl)s3)[C@H]2C1")
44.3
>>> recorded_number("CCc1ccc(O)c(C(=O)NC2CCN(C(=O)OC)CC2)c1")
-10.9
>>> recorded_number("CCc1nc(C2CCCN2CC(=O)Nc2cc(C)no2)no1 (stereo unspecified)")
-5.2
>>> recorded_number("CC(=O)c1cn(CCC(=O)N[C@@H](CC(C)C)C(=O)O)c2ccccc12")
-7.76
